In this section we review reported protein stability index values for a set of variants.
B1: PLAGL1 (parent)
chain: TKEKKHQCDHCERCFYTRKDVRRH

Variants of: B1
RUN DESCRIPTION: protein stability index of a GFP-peptide fusion (GPS, HEK-293T) (PSI 1-6); higher = more stable;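 note: lentivirally expressed fusions sorted by FACS into six bins by GFP to DsRed ratio, PSI derived from sequencing read proportions per bin multiplied by bin number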
RECORDED CONDITIONS: c terminus: a fixed tail appended
The reply should be a number, written without any unit.

QKEKKHQCDHCERCFYTRKDVRRH [T1Q]	3.52
TKEKKHQCDHCGRCFYTRKDVRRH [E12G]	4.02
TKEKKHRCDHCERCFYTRKDVRRH [Q7R]	3.33
TKEKKHQTDHCERCFYTRKDVRRH [C8T]	3.24
FKEKKHQCDHCERCFYTRKDVRRH [T1F]	3.1

// below: protein stability index requested for another variant
Query string: What value of measured protein stability index is listed for TKEKKHQCDHCERCFYTRKDVGRH [R22G] ?
Result string: 3.61
